# Tested on: SNB-19 CNS
# assayProcedure: NCI-60 one-dose screen, 48 h (100 = growth as untreated, 0 = no growth, -100 = all killed)
# statedConditions: 10 µM unless noted
This is part of a sample that, as a whole, favours compounds with a hit. Of some 83,000 tested, about 20% had one in any assay.
# growth values compiled below
metric: growth (%)

compound | result
COC(CCP(=O)(c1ccccc1)c1ccccc1)(C(=O)c1ccccc1)c1ccccc1 (centres undefined) | 71.6
N#C/C(Sc1nc2sc3c(c2c(=O)n1Cc1ccccc1)CCCC3)=C1/SC=C(c2ccc(Cl)cc2)N1c1ccccc1 | 82.3
COc1c(O[C@@H]2OC(CO)[C@H](O)[C@H](O)C2O)cc2oc3cc(O)c(CC=C(C)C)c(O)c3c(=O)c2c1CC=C(C)C (some centres undefined) | 96.1
N=C(N)c1ccc(-c2ccc(-c3ccc(Cl)cc3Cl)s2)nc1 | 56.3

====

# System: MCF7 breast
# assayProcedure: NCI-60 one-dose screen, 48 h (100 = growth as untreated, 0 = no growth, -100 = all killed)
# statedConditions: 10 µM unless noted
About 83,000 compounds went through this panel and 20% of them were active in at least one assay; those are over-represented in the sample as a whole.
# growth values compiled below
metric: growth (%)

molecule | result
c1ccc(-c2nc(N3CCNCC3)c3oc(-c4ccccc4)nc3n2)cc1 | -62.3
CN(C)CC1C(=O)O[C@H]2[C@H]1CC/C(COC(=O)NCc1ccc(Cn3c(=O)sn(CCCI)c3=O)cc1)=C\CC[C@@]1(C)O[C@@H]21 (some centres undefined) | -55.4
CCCn1cnc2c(c1=N)C(c1ccc(Cl)cc1)c1sc3c(F)cccc3c1O2 (centres undefined) | 32.3
CCOc1ccccc1NC(=O)CCC(=O)OC | 90.4
CCN1C(=O)N(CC)C2C1NN=c1s/c(=C\c3ccccc3)c(=O)n12 (centres undefined) | 16.2
COc1ccc2c(O)cc3c(c2c1)[C@H](CCl)CN3C(=O)c1cc2cc(NC(=O)CCN3CCOCC3)ccc2[se]1 | -48
CN1C(=O)N(C)C2C1NN=c1s/c(=C\c3ccc(F)cc3)c(=O)n12 (centres undefined) | 4.25
O=C(Nc1ccc(Oc2cccc(F)c2)c(Cl)c1)c1cnccn1 | 17.5
CCN(CC)c1ccc(/C=N/NC(=O)c2ccccc2Nc2ccnc(C(F)(F)F)c2)c(O)c1 | 20.4

====

# System: HT29 colon
# assayProcedure: NCI-60 one-dose screen, 48 h (100 = growth as untreated, 0 = no growth, -100 = all killed)
# statedConditions: 10 µM unless noted
Compounds without any hit were thinned out: in the full panel of roughly 83,000, 20% have a hit.
Cut-off 30% on growth, inclusive. At or above means yes; below means no.

molecule | targetSystem | group
CCOC(=O)c1c(C)n2c(=O)cc(C)c3c(OC(C)=O)c(OC(C)=O)cc1c32 | HT29 colon | yes
CC(C)(C)CC(C)(C)Nc1c(-c2c(O)c3ccccc3oc2=O)nc2sccn12 | HT29 colon | yes
Cc1ccc2nc(/C=C/c3ccc(N(C)C)cc3)cc(C)c2c1 | HT29 colon | no
C[C@H]1c2ccccc2CN1CCCOc1cc2c(cc1OCC1CC1)C1(CCCC1)C(N)=N2 | HT29 colon | no
CC(C)CCc1nc2ccc(NCc3ccc(OCCN4CCC(C)CC4)cc3)cc2[nH]1 | HT29 colon | yes
COc1cc(-c2c(-c3ccccc3)c[nH]c2C(=O)NCCCO)c(OC)c2c1OCO2 | HT29 colon | yes
COc1ccc2c(O)cc3c(c2c1)[C@H](CCl)CN3C(=O)c1cc2cc(NC(=O)CCN3CCOCC3)ccc2[se]1 | HT29 colon | no
CCN(CC)CCCC(Nc1c2ccc(Cl)cc2nc2ccc(OC)cc12)c1ccncc1 (stereo not given) | HT29 colon | yes
C#CCOc1ccc(C2=NN(C)C3N=C(Cl)c4ncn(C)c4N23)cc1OCC#C (stereo not given) | HT29 colon | yes
O=C(NCCN1CCOCC1)c1cncnc1Nc1ccc2c(ccn2Cc2ccccn2)c1 | HT29 colon | yes
COc1cc2cc(Oc3ccc(NC(=O)Nc4ccc(F)c(C(F)(F)F)c4)cc3)c(C)nc2cc1OCCN1CCCCC1 | HT29 colon | no
N#CC1=C(N)Oc2c(ccc3cccnc23)C1c1ccccc1 (stereo not given) | HT29 colon | no
CCN1C(=O)N(CC)C2C1NN=c1s/c(=C\c3ccc([N+](=O)[O-])cc3)c(=O)n12 (stereo not given) | HT29 colon | no
CCOC(=O)CSc1nc2sc3c(c2c(=O)n1-c1ccccc1)CCCCC3 | HT29 colon | yes
CC1=NN(c2cccc(Cl)c2)C(=O)/C1=C\C=C\c1ccccc1 | HT29 colon | no
O=C1CCC(C(=O)N/N=C/c2ccc([N+](=O)[O-])cc2)N1 (stereo not given) | HT29 colon | yes
COC(=O)c1c(C)nc(C)c2c1C(=O)C(Br)=C(NCCCCO)C2=O | HT29 colon | no
CNC(=O)c1cc(Oc2ccc3nc(NC(=O)c4cc(C(F)(F)F)cc(C(F)(F)F)c4)sc3c2)ccn1 | HT29 colon | yes
COc1cc(CNC(=O)CCCC/C=C/C(C)C)ccc1OCc1cn(-c2cccc([N+](=O)[O-])c2)nn1 | HT29 colon | yes
CCOC(=O)C1=C(C)N(C)C(=O)N(C)C1c1ccccc1 (stereo not given) | HT29 colon | yes

====

# growth values compiled below
# Test system: T-47D breast
# assayProcedure: NCI-60 one-dose screen, 48 h (100 = growth as untreated, 0 = no growth, -100 = all killed)
# statedConditions: 10 µM unless noted
# Method: Growth inhibition of the T-47D human tumor cell line is measured as a screen for anti-cancer activity. Cells are grown in 96 well plates and exposed to the test compound for 48 hours. Compounds are tested at a single concentration, which is 10^-5 M for most compounds. The reported endpoint is percent growth (GI% or GIPRCNT), where numbers from 0 - 100% represent growth inhibition, and numbers from -100% - 0 represent cell death. For example, a value of 40 represents 60% growth inhibition. […]
This is part of a sample that, as a whole, favours compounds with a hit. Of some 83,000 tested, about 20% had one in any assay. Calls of active or inactive are those of the source. Rule for the calls: active = growth percent below 10; inactive = the rest.

compound | growth
Cc1ccccc1NC(=O)c1sc2nc3c(cc2c1N)CCCC3 | 29.6% (inactive)
Cn1ccnc1C(=O)/C=C/c1ccc(C(=O)Nc2c(F)c(F)c(F)c(F)c2F)cc1 | 9.11% (active)
CN1CCN(Cc2ccc(NC(=O)c3cncc(C#Cc4c(N)ncc5ccccc45)c3)cc2C(F)(F)F)CC1 | -64.5% (active)
O=C(CNc1ncco1)Nc1ccc(S(=O)(=O)c2ccc(NC(=O)CNc3ncco3)cc2)cc1 | 29.3% (inactive)
O=C(Nc1ccc(Oc2cccc(F)c2)c(Cl)c1)c1cnccn1 | 38.3% (inactive)
Cc1c2ccncc2c(C)c2c1c1ccccc1n2CCCCCC(=O)O | 86.5% (inactive)
O=C1/C(=C/c2cccc([N+](=O)[O-])c2)COc2ccc(O)c(O)c21 | -16.8% (active)
COc1ccc(S(=O)(=O)Oc2ccc(-c3sc4cc(OS(=O)(=O)c5ccc(OC)cc5)ccc4c3C(=O)c3ccc(OCCN4CCCCC4)cc3)cc2)cc1 | 94.2% (inactive)
COC(=O)CNC(=O)c1ccc(NC(=O)c2[nH]c(C)c(Cl)c2Cl)c(O[C@H]2CCNC2)c1 | 101% (inactive)
COc1ccc(NC(=O)c2ccc(Cl)cc2Cl)cc1 | 94.5% (inactive)
CC1(C)CC[C@]2(CO)CC[C@]3(C)C(=CC[C@@H]4[C@@]5(C)CCNCC(C)(C)[C@@H]5CC[C@]43C)[C@@H]2C1 | 56.3% (inactive)
COC(=O)c1nc(-c2ccccc2)oc1S(=O)(=O)NCC(c1ccc(Cl)cc1)N1CCCCC1 (stereo not given) | 52.1% (inactive)
C#CCOC(=O)C(N)CSSCC(N)C(=O)O (stereo not given) | 100% (inactive)
O=C1NCCN1/N=C/c1c(Cl)n(Cc2ccc(Cl)cc2)c2ccccc12 | 113% (inactive)
CCCCCCCCCCCCCCCCCCOc1ccccc1CC(=O)OCC[N+]1(C)CCCCC1 | 66.9% (inactive)
NS(=O)(=O)Oc1cccc(-c2nc3sccn3c2-c2ccccc2)c1 | 36.2% (inactive)
COc1ccc(Nc2nc(Nc3cc(C)[nH]n3)c3cc(OC)c(OC)cc3n2)cc1 | -52.1% [20 µM] (active)
CCCC1Cc2cc(-n3nc(C)c4c3CC(C)(C)CC4=O)cc(NC3CCC(O)CC3)c2C(=O)N1 (stereo not given) | 46.9% (inactive)
Cc1ccc2c(c1)CC(O)CC1C(=O)N(CCO)CC(=O)N21 (stereo not given) | 93.1% (inactive)
N=C(N)c1ccc(-c2ccc(-c3ccccc3)s2)nc1 | 79.5% (inactive)
